Molecular target: Zinc finger protein mex-5 (Caenorhabditis elegans, UniProt Q9XUB2)
Sequence (Q9XUB2 whole entry): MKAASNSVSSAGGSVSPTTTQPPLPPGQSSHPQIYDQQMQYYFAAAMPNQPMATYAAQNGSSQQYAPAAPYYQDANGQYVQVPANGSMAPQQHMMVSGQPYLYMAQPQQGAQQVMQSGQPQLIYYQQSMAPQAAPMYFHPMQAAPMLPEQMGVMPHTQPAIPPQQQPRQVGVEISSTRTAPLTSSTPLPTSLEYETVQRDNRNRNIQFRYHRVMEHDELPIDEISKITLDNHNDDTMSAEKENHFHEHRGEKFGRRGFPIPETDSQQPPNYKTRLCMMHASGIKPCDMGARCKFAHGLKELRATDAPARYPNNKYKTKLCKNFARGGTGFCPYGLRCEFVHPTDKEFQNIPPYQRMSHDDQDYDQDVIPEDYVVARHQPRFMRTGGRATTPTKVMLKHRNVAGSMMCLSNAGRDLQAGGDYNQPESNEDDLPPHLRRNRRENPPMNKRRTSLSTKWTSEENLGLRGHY
Experiment: potency of MEX-5 RNA-binding blockers – biochemical, C. elegans, fluorescence polarization, dose response (AID 1960)
Active and inactive are the calls of the source. Cut-off read from the data, not from the text of the source: actives have a measured EC50 and inactives only a lower limit.
Some molecules, each annotated with its measured EC50.

MOLECULE: Cc1ccc2nc3sc(C(=O)N4CCCc5ccccc54)c(N)c3cc2c1
EC50: > 300 µM (inconclusive)
//
MOLECULE: CC1CCN(C(=O)CCN2C(=O)/C(=C/c3cccs3)SC2=S)CC1
EC50: > 300 µM (not active)
//
MOLECULE: Cc1ncc(CO)c(/C=N/NC(=O)c2cc(Br)ccc2O)c1O
EC50: 5.72 µM (active)
//
MOLECULE: CCC(C)(C)NC(=O)C(c1cccn1C)N(C(=O)Cn1nnc2ccccc21)c1ccc(OC)cc1 (stereo not given)
EC50: > 300 µM (not active)
//
MOLECULE: N#Cc1cc(NC2CCCC2)c([N+](=O)[O-])cc1C#N
EC50: 41.8 µM (active)
